Values were extracted from patent US20160185837A1.

Parameter: log10 of EC50. Scope: all listed entries.
Target: human GIP receptor (hGIPr) (Homo sapiens)
Construct: expressed in transfected cells
Sequence (P48546 22-466): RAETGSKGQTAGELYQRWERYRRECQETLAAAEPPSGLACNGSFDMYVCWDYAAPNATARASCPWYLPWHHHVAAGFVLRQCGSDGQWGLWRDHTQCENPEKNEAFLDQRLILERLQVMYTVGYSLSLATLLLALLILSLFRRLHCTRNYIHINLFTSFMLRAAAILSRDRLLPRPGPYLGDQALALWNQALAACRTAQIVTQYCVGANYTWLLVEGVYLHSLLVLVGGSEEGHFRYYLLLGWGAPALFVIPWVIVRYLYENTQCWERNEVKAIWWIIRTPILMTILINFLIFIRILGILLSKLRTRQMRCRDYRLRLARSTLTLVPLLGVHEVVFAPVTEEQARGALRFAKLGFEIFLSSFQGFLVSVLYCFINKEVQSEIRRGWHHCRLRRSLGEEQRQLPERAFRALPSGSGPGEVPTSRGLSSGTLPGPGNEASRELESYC
Experiment: BSA-cAMP assay, cells expressing human GIP receptor
Format: cell-based
Settings: Batch 1; BSA-cAMP assay; read-out: hGIPr cAMP activity EC50
MEASURED_PARAMETER: log10 of EC50 (log10 of the value in pM)

INSERT INTO measurements (substance, measured_value) VALUES
  ('IP335 (YSEGTFISDYSIAMDKIHQQDFVNWLLAQKGGGGGSGGGGSGGGGSGGGGSA)', 0.76),
  ('IP380: Fc fusion, IgG1-fusion, SEQ ID NO:376; agonist peptide YSEGTFTSDYSKLLEEEAVRLFIEFLLAGG (YSEGTFTSDYSKLLEEEAVRLFIEFLLAGGGGGGSGGGGSGGGGSGGGGSATHTCPPC)', 0.92),
  ('IP318: Fc fusion, IgG1-TM(ΔK), SEQ ID NO:432; agonist peptide YSEGTFISDYSIAMDEEAVRDFVEWLKAGG (YSEGTFISDYSIAMDEEAVRDFVEWLKAGGGGGGGSGGGGSGGGGSGGGGSATHTCPPC)', 1.70),
  ('IP314: Fc fusion, IgG1-TM(ΔK), SEQ ID NO:431; agonist peptide YSEGTFISDYSKLLAAAAVRDFVNWLLAGG (YSEGTFISDYSKLLAAAAVRDFVNWLLAGGGGGGGSGGGGSGGGGSGGGGSATHTCPPC)', 2.36),
  ('IP359: Fc fusion, IgG1-TM, SEQ ID NO:366; agonist peptide YSEGTFTSDYSKLLEEEAVRLFIEHLLAGG (YSEGTFTSDYSKLLEEEAVRLFIEHLLAGGGGGGSGGGGSGGGGSGGGGSATHTCPPC)', 1.04),
  ('IP381: Fc fusion, IgG1-fusion, SEQ ID NO:377; agonist peptide YSEGTFTSDYSKLLEEEAVRLFIEYLLAGG (YSEGTFTSDYSKLLEEEAVRLFIEYLLAGGGGGGSGGGGSGGGGSGGGGSATHTCPPC)', 1.00),
  ('IP299: Fc fusion, IgG1-TM(ΔK), SEQ ID NO:351; agonist peptide YSEGTFISDYSKLLEEEAVRDFVEWLKAGG (YSEGTFISDYSKLLEEEAVRDFVEWLKAGGGGGGGSGGGGSGGGGSGGGGSATHTCPPC)', 1.32),
  ('IP308 (YSEGTFISDYSIALAAAAAKDFVNWLLAGGGGGGGSGGGGSGGGGSGGGGSATHTCPPC)', 1.40),
  ('IP386 (YSEGTFISDYSIAMDKIHQQDFVNWLLAQKGGGGGSGGGGSGGGGSGGGGSACPPC)', 0.53),
  ('IP342 (YSEGTFTSDYSAAAEAAAAAAFAAWLAAAAGGGGGSGGGGSGGGGSGGGGSACPPC)', 3.67),
  ('IP395 (YSEGTFTSDYSKLLERQAIDEFIAHLLKGGGGGGGSGGGGSGGGGSGGGGSACPPC)', 1.08),
  ('IP343 (YSEGTFTSDYAAAAERQAIDAFAAWLAAAAGGGGGSGGGGSGGGGSGGGGSA)', 4.86),
  ('IP353 (YSEGTFTSDYAAAAEAAAAAAFAAWLAKAAGGGGGSGGGGSGGGGSGGGGSACPPC)', 3.00);
